tested on: T-Rex 293 cell line SC3 cells lacking increased expression of androgen receptor protein; assay: Cellular growth inhibition, T-Rex 293 SC3 cells without doxycycline, CellTiter-Glo; assay type: cell-based; conditions: 72 h, T-Rex 293 SC3 cells not exposed to doxycycline, CellTiter-Glo 2.0
// GI50 lookup, one value per entry

- Cc1sc2c(c1C)C(c1ccc(CC[C@@H]3CC[C@]4(CCCN(c5ncc(C(=O)N[C@H]6C(C)(C)[C@H](Oc7ccc(C#N)c(Cl)c7)C6(C)C)cn5)C4)C3)cc1)=N[C@@H](Cc1ncco1)c1nnc(C)n1-2: > 3 µM
- Cc1sc2c(c1C)C(c1ccc(OC[C@H]3C[C@]4(CCCN(c5ncc(C(=O)N[C@H]6C(C)(C)[C@H](Oc7ccc(C#N)c(Cl)c7)C6(C)C)cn5)C4)C3)cc1)=N[C@@H](C)c1nnc(C)n1-2: > 3 µM
- Cc1sc2c(c1C)C(c1ccc(Cl)cc1)=N[C@@H](CC(=O)NCCOCCCCCOC1CCN(c3ncc(C(=O)N[C@H]4C(C)(C)[C@H](Oc5ccc(C#N)c(Cl)c5)C4(C)C)cn3)CC1)c1nnc(C)n1-2: < 0.5 µM

Turning to the following compound.
State, for T-Rex 293 cell line SC3 cells lacking increased expression of androgen receptor protein, measured GI50 of the compound listed here: Cc1sc2c(c1C)C(c1ccc(C[C@H]3C[C@]4(CCCN(c5ncc(C(=O)N[C@H]6C(C)(C)[C@H](Oc7ccc(C#N)c(Cl)c7)C6(C)C)cn5)C4)C3)cc1)=N[C@@H](Cc1ncco1)c1nnc(C)n1-2
> 3 µM

----------
tested on: T-Rex 293 cell line SC cells lacking increased expression of progesterone receptor isoform B protein; experiment: Cellular growth inhibition, T-Rex 293 SC cells without doxycycline, Example 45; format: cell-based; conditions: T-Rex 293 SC cells not exposed to doxycycline, 72 hours treatment, CellTiter-Glo 2.0
// GI50 lookup, one value per entry

Record excerpt, results attached:
• Cc1sc2c(c1C)C(c1ccc(N3CC(N4CCN(c5ncc(C(=O)N[C@H]6C(C)(C)[C@H](Oc7ccc(C#N)c(Cl)c7)C6(C)C)cn5)CC4)C3)cc1)=NC(Cc1ncco1)c1nnc(C)n1-2 (stereo partly drawn) = < 0.5 µM
• Cc1sc2c(c1C)C(c1cccc(OCCOC3CCN(c4ncc(C(=O)N[C@H]5C(C)(C)[C@H](Oc6ccc(C#N)c(Cl)c6)C5(C)C)cn4)CC3)c1)=N[C@@H](CC(=O)O)c1nnc(C)n1-2 = > 3 µM
• Cc1sc2c(c1C)C(c1ccc(OC3CN(CC4CCN(c5ncc(C(=O)N[C@H]6C(C)(C)[C@H](Oc7ccc(C#N)c(Cl)c7)C6(C)C)cn5)CC4)C3)cc1)=N[C@H](Cc1ncco1)c1nnc(C)n1-2 = < 0.5 µM
• Cc1sc2c(c1C)C(c1ccc(Cl)cc1)=N[C@@H](CC(=O)NCCOCCOCCOCCOCCN(C)c1ncc(C(=O)N[C@H]3C(C)(C)[C@H](Oc4ccc(C#N)c(Cl)c4)C3(C)C)cn1)c1nnc(C)n1-2 = 1.5 to 3 µM
• CCNC(=O)C[C@@H]1N=C(c2ccc(OC3CCN(C4CCN(c5ncc(C(=O)N[C@H]6C(C)(C)[C@H](Oc7ccc(C#N)c(Cl)c7)C6(C)C)cn5)CC4)C3)cc2)c2c(sc(C)c2C)-n2c(C)nnc21 (stereo partly drawn) = 0.5 to 1.5 µM

Let me know recorded GI50 for Cc1sc2c(c1C)C(c1ccc(N3CC(C4CCN(c5ncc(C(=O)N[C@H]6C(C)(C)[C@H](Oc7ccc(C#N)c(Cl)c7)C6(C)C)cn5)CC4)C3)cc1)=NC(Cc1ncco1)c1nnc(C)n1-2 (stereo partly drawn) , thanks.
0.5 to 1.5 µM

Let me know recorded GI50 for Cc1sc2c(c1C)C(c1ccc(OCCOC3CCN(c4ncc(C(=O)N[C@H]5C(C)(C)[C@H](Oc6ccc(C#N)c(Cl)c6)C5(C)C)cn4)CC3)cc1)=N[C@@H](CC(=O)OC(C)(C)C)c1nnc(C)n1-2 , thanks.
< 0.5 µM

Let me know recorded GI50 for CCNC(=O)C[C@@H]1N=C(c2ccc(OC3CCN(c4ncc(C(=O)N[C@H]5C(C)(C)[C@H](Oc6ccc(C#N)c(Cl)c6)C5(C)C)cn4)CC3)cc2)c2c(sc(C)c2C)-n2c(C)nnc21 , thanks.
0.5 to 1.5 µM

Let me know recorded GI50 for Cc1sc2c(c1C)C(c1ccc(C[C@H]3C[C@@H]([C@@H]4CCCN(c5ncc(C(=O)N[C@H]6C(C)(C)[C@H](Oc7ccc(C#N)c(Cl)c7)C6(C)C)cn5)C4)C3)cc1)=N[C@@H](Cc1ncco1)c1nnc(C)n1-2 , thanks.
> 3 µM

----------
target: BRD4-BD1 (Homo sapiens); experiment: bromoKdELECT assay for binding affinity to BRD4-BD1; details: Table 6
pKd: −log10 of the molar value.
observation-type: pKd

Record excerpt, results attached:
• CCNC(=O)C[C@@H]1N=C(c2ccc(CCCC3CCN(c4ncc(C(=O)N[C@H]5C(C)(C)[C@H](Oc6ccc(C#N)c(Cl)c6)C5(C)C)cn4)CC3)cc2)c2c(sc(C)c2C)-n2c(C)nnc21 = < 5.60
• Cc1sc2c(c1C)C(c1ccc(Cl)cc1)=N[C@@H](CC(=O)NCCCCOCCOC1CCN(c3ncc(C(=O)N[C@H]4C(C)(C)[C@H](Oc5ccc(C#N)c(Cl)c5)C4(C)C)cn3)CC1)c1nnc(C)n1-2 = 5.60 to 6.30
• Cc1sc2c(c1C)C(c1ccc(Cl)cc1)=N[C@@H](CC(=O)NCCOCCOCCOC1CCN(c3ncc(C(=O)N[C@H]4C(C)(C)[C@H](Oc5ccc(C#N)c(Cl)c5)C4(C)C)cn3)CC1)c1nnc(C)n1-2 = 5.60 to 6.30

Turning to the following compound.
Let me know recorded pKd for Cc1sc2c(c1C)C(c1ccc(Cl)cc1)=N[C@@H](CC(=O)NCCOCCOCCOCCOCCOC1CCN(c3ncc(C(=O)N[C@H]4C(C)(C)[C@H](Oc5ccc(C#N)c(Cl)c5)C4(C)C)cn3)CC1)c1nnc(C)n1-2 , thanks.
5.60 to 6.30

----------
system: T47D cells; assay: Cellular growth inhibition assay for T47D cells, CellTiter-Glo; format: cell-based, human; conditions: 72 hours treatment, CellTiter-Glo 2.0 cell viability
// GI50 lookup, one value per entry

Record excerpt, results attached:
- Cc1sc2c(c1C)C(c1ccc(N3CC(C4CCCC(Cc5ncc(C(=O)N[C@H]6C(C)(C)[C@H](Oc7ccc(C#N)c(Cl)c7)C6(C)C)cn5)C4)C3)cc1)=N[C@@H](Cc1ncco1)c1nnc(C)n1-2 (stereo partly drawn) [Compound I-581]: < 500 nM
- Cc1sc2c(c1C)C(c1ccc(C#CC3CCC(Cc4ncc(C(=O)N[C@H]5C(C)(C)[C@H](Oc6ccc(C#N)c(Cl)c6)C5(C)C)cn4)CC3)cc1)=N[C@@H](Cc1ncco1)c1nnc(C)n1-2 (stereo partly drawn) [Compound I-506]: 500 to 1500 nM

Turning to the following compound.
Let me know recorded GI50 for Cc1sc2c(c1C)C(c1ccc(C3CC(CC4CCN(c5ncc(C(=O)N[C@H]6C(C)(C)[C@H](Oc7ccc(C#N)c(Cl)c7)C6(C)C)cn5)CC4)C3)cc1)=NC(C)c1nnc(C)n1-2 (stereo partly drawn) [Compound I-511] , thanks.
> 3000 nM

----------
system: T-Rex 293 cell line SC3 cells lacking increased expression of androgen receptor protein; assay: Cellular growth inhibition, T-Rex 293 SC3 cells without doxycycline, CellTiter-Glo; format: cell-based; settings: 72 h, T-Rex 293 SC3 cells not exposed to doxycycline, CellTiter-Glo 2.0
// GI50 lookup, one value per entry

- Cc1sc2c(c1C)C(c1ccc(N3CC(OC4CCN(c5ncc(C(=O)N[C@H]6C(C)(C)[C@H](Oc7ccc(C#N)c(Cl)c7)C6(C)C)cn5)CC4)C3)cc1)=N[C@@H](Cc1ncco1)c1nnc(C)n1-2: < 500 nM

State, for T-Rex 293 cell line SC3 cells lacking increased expression of androgen receptor protein, measured GI50 of the molecule listed here: Cc1sc2c(c1C)C(c1ccc(NCC3CCN(c4ncc(C(=O)N[C@H]5C(C)(C)[C@H](Oc6ccc(C#N)c(Cl)c6)C5(C)C)cn4)CC3)cc1)=N[C@@H](Cc1ncco1)c1nnc(C)n1-2
< 500 nM

State, for T-Rex 293 cell line SC3 cells lacking increased expression of androgen receptor protein, measured GI50 of the molecule listed here: [2H]C([2H])(c1ccc(C2=N[C@@H](Cc3ncco3)c3nnc(C)n3-c3sc(C)c(C)c32)cc1)N1CC[C@]2(CCCN(c3ncc(C(=O)N[C@H]4C(C)(C)[C@H](Oc5ccc(C#N)c(Cl)c5)C4(C)C)cn3)C2)C1
> 3000 nM

State, for T-Rex 293 cell line SC3 cells lacking increased expression of androgen receptor protein, measured GI50 of the molecule listed here: CCNC(=O)C[C@@H]1N=C(c2ccc(N(C)C3CN(CC4CCN(c5ncc(C(=O)N[C@H]6C(C)(C)[C@H](Oc7ccc(C#N)c(Cl)c7)C6(C)C)cn5)CC4)C3)cc2)c2c(sc(C)c2C)-n2c(C)nnc21
500 to 1500 nM
